System: IGROV1 ovarian
Assay: NCI tumour cell line growth inhibition, 48 h
Listed next: entries and their corresponding TGI.

- compound: "CC(C)CC1c2[nH]c3ccccc3c2C[C@H]2C(=O)NC(CCC(=O)OC(C)(C)C)C(=O)N12 (some centres not stated)"
  TGI: "> 100 µM"
- compound: "COC(=O)C1=CC[C@@H]2C(C(=O)O)=CO[C@@H](OC3OC(CO)C(O)C(O)C3O)[C@H]12 (some centres not stated)"
  TGI: "> 300 µM"
- compound: "O=c1c2cccnc2nc2ccc3c[nH][nH]c3c12"
  TGI: "> 10 µM"
- compound: "CCOC(=O)c1ccc(N2C(=O)/C(=C\\OC)c3ccccc3C2=O)cc1"
  TGI: "> 100 µM"
- compound: "[C-]#[O+].[C-]#[O+].[Ir].[O-]c1cccc2cccnc12"
  TGI: "> 100 µM"
- compound: "CCN(CC)Cc1cc(Nc2c3ccccc3nc3c2[nH]c2ccccc23)ccc1O"
  TGI: "4.49 µM"
- compound: "O=c1cc(-c2ccccc2)nc2n1CCN2Cc1ccccc1"
  TGI: "53.2 µM"

====

Test system: HCT-116 colon
Assay: NCI tumour cell line growth inhibition, 48 h
Short version: TGI at least 20 µM is satisfied, less is not satisfied.

- molecule: "O=C(c1ccncc1)n1nc(-c2ccccc2)c(N=Nc2ccc([N+](=O)[O-])cc2)c1-c1ccccc1"
  classification: "satisfied"
- molecule: "C=C1C(=O)C23CC1C[C@H](OC(C)=O)C2C1(C)C(OC(C)=O)C[C@H](O)C(C)(C)[C@H]1C(O)[C@@H]3OC(C)=O (some centres undefined)"
  classification: "not satisfied"
- molecule: "O=C(Nc1ccc(Cl)cc1)c1cc2ccccc2cc1O"
  classification: "not satisfied"
- molecule: "CCOC(=O)c1ccc(C(=O)/C(C#N)=C2\\CCCN2)[nH]1"
  classification: "satisfied"
- molecule: "O=[N+]([O-])c1cccc2nccc(NCC(O)CO)c12 (centres undefined)"
  classification: "satisfied"
- molecule: "COC(=O)C1=CC[C@@H]2C(C(=O)O)=CO[C@@H](OC3OC(CO)C(O)C(O)C3O)[C@H]12 (some centres undefined)"
  classification: "satisfied"
- molecule: "Cc1c2c(n(CCc3ccccc3)c1C)NN=C(C#N)S2(=O)=O"
  classification: "satisfied"
- molecule: "Cc1ccc2c(N)c(C(=O)N[C@H]3CCc4cc(N5CC6CCC(C5)N6)ccc4C3)sc2n1"
  classification: "not satisfied"
- molecule: "c1ccc(CCN(Cc2nc3ccccc3[nH]2)Cc2nc3ccccc3[nH]2)cc1"
  classification: "not satisfied"

====

Test system: OVCAR-8 ovarian
Test: NCI tumour cell line growth inhibition, 48 h
Catalogue of TGI readings, one per entry.
value_type: TGI

- structure: "COc1ccc(-c2nc(-c3ccccc3)c(-c3ccccc3)n2C2CC2)cc1OC1CCCC1"
  value_type: "TGI"
  result: "> 165 µM"
- structure: "COc1ccc(-c2nc(-c3cn(C)c4ncccc34)cs2)cc1"
  value_type: "TGI"
  result: "> 100 µM"
- structure: "CCCCCc1c2nc(c(CCCCC)c3ccc([nH]3)c(CCCCC)c3ccc([nH]3)c(CCCCC)c3nc1C=C3)C=C2"
  value_type: "TGI"
  result: "> 100 µM"

====

System: HCT-116 colon
Test: NCI tumour cell line growth inhibition, 48 h
value_type: TGI

- compound: "CC1NC(/C(=C/c2ccccc2O)NC(=O)c2ccccc2)OC1=O (stereo unspecified)"
  result: "> 50 µM"
- compound: "CCOC(=O)CC1=CSC2=NCCN12"
  result: "> 100 µM"
- compound: "CCC1(N=[N+]=[N-])C(=O)Nc2cc(C)ccc2C1=O (stereo unspecified)"
  result: "> 100 µM"
- compound: "CC(=O)N1c2ccccc2Sc2cc(C(O)(C(F)(F)F)C(F)(F)F)ccc21"
  result: "> 10 µM"
- compound: "O=C(O)C1CC(c2ccccc2)=NN1c1ccccc1 (stereo unspecified)"
  result: "> 100 µM"
- compound: "C[N+](C)(CCCCCC[N+](C)(C)CCCN1C(=O)c2cc3ccccc3cc2C1=O)CCCN1C(=O)c2ccccc2C1=O"
  result: "> 37.5 µM"

====

Tested on: SK-MEL-5 melanoma
Test: NCI tumour cell line growth inhibition, 48 h; in the data active means GI50 below about 0.43 µM; inactive means the rest
Outcome codes: T = active, F = inactive

- compound: "Fc1ccc(-c2ccc(-c3nnc(-c4cc(F)c(Cl)cc4Cl)o3)o2)cc1Cl"
  classification: "F"
- compound: "OCCCCC#Cc1ccccc1C#Cc1ccccc1C(F)(F)F"
  classification: "F"
- compound: "Cc1cc(S(=O)(=O)Nc2nnc(-c3ccccc3)c(-c3ccccc3)n2)c(SCc2ccccc2)cc1Cl"
  classification: "F"
- compound: "Cc1cc2c(F)c(Oc3ncnn4cc(OC[C@@H](C)OC(=O)[C@H](C)N)c(C)c34)ccc2[nH]1"
  classification: "F"
- compound: "C[C@]12CC[C@@H]3c4ccc(O)cc4CC[C@H]3[C@@H]1CC[C@@H]2NS(=O)(=O)Cc1ccc(Cl)cc1"
  classification: "F"
- compound: "CCN(CC)CCOc1ccc(/C=C2\\CC3C4CC=C5C[C@@H](N6CCCC6)CC[C@]5(C)C4CC[C@]3(C)[C@H]2O)cc1OC (some centres not stated)"
  classification: "T"
- compound: "Cc1nc2cccc(NCc3ccc(C(=O)NO)cc3)c2c(=O)n1-c1ccccc1"
  classification: "F"

====

Parameter TGI: see the listing below.
System: LOX IMVI melanoma
Experiment: NCI tumour cell line growth inhibition, 48 h

- compound: "CCOC(=O)C1C(=O)c2ccccc2CN1Cc1ccccc1 (stereo not drawn)"
  TGI: "> 100 µM"
- compound: "ON=C1CCC(c2ccccc2)CC1 (stereo not drawn)"
  TGI: "> 100 µM"
- compound: "CC1(C)OCC(CO)(Nc2nc(N3CC3)nc(N3CC3)n2)CO1"
  TGI: "32.4 µM"
- compound: "CC(c1cccc2ccccc12)/[N+]([O-])=C/c1ccccc1 (stereo not drawn)"
  TGI: "> 100 µM"
- compound: "O=C(O)C1CC(c2ccccc2)=NN1c1ccccc1 (stereo not drawn)"
  TGI: "> 100 µM"
- compound: "COC(=O)c1c(C(=O)OC)c2cc(C(=O)c3ccccc3)ccn2c1Cl"
  TGI: "> 100 µM"
- compound: "COc1ccc(OC)c2nc3c(C(=O)NCCN(C)C)cccc3nc12"
  TGI: "4.91 µM"
- compound: "O=C(Oc1ccc(CCl)cc1)c1ccccc1"
  TGI: "0.305 µM"
- compound: "CC(C)(C)N1NC1C1NN1C(C)(C)C (stereo not drawn)"
  TGI: "> 100 µM"
- compound: "CCOC(=O)c1ccc(C(=O)/C(C#N)=C2\\CCCN2)[nH]1"
  TGI: "> 100 µM"
- compound: "CC1(C)C(=O)N=C(N)N1C(=O)OCc1ccccc1"
  TGI: "> 100 µM"
- compound: "c1ccc(CCN(Cc2nc3ccccc3[nH]2)Cc2nc3ccccc3[nH]2)cc1"
  TGI: "23.1 µM"
- compound: "O=C(NC(=S)Nc1ccc(Cl)cc1)c1ccccc1"
  TGI: "> 100 µM"
- compound: "COC[n+]1cc2cc(OC)c(OC)cc2c2ccc3cc(OC)c(OC)cc3c21"
  TGI: "> 100 µM"
- compound: "Cc1ccc(S(=O)(=O)N2CCCCN(S(=O)(=O)c3ccc(C)cc3)Cc3ccccc3OCCOCCOc3c4cccc3Cc3cccc5c3OCCOCCOc3ccccc3CN(S(=O)(=O)c3ccc(C)cc3)CCCN(S(=O)(=O)c3ccc(C)cc3)Cc3ccccc3OCCOCCOc3c(cccc3C4)Cc3cccc(c3OCCOCCOc3ccccc3C2)C5)cc1"
  TGI: "> 100 µM"
- compound: "COc1c(O)ccc2c1CN1CCc3cc4c(cc3C1C2)OCO4 (stereo not drawn)"
  TGI: "> 77.8 µM"
- compound: "C/C=C(\\C)C(=O)O[C@H]1C=CC(=O)O[C@H]1CNC(=O)[C@H](C)O"
  TGI: "30.4 µM"
- compound: "Nc1ccccc1C#C/C=C\\C#Cc1ccc(Cl)cc1Cl"
  TGI: "26.5 µM"
- compound: "CC(=O)OCC1OC(O[C@@H]2c3c(O)c4c(c(O)c3C3=C(NN(c5ccc([N+](=O)[O-])cc5[N+](=O)[O-])[Se]3=O)[C@@]2(C)O)C(=O)c2ccccc2C4=O)C(OC(C)=O)C(OC(C)=O)C1OC(C)=O (stereo partly drawn)"
  TGI: "0.319 µM"
- compound: "COc1ccc(/C=C2/C[N+](C)(C)C/C(=C/c3ccc(OC)cc3)C2=O)cc1"
  TGI: "> 100 µM"
- compound: "O=C(c1ccccc1)c1c(C(=O)c2ccccc2)c(-c2ccccc2)c2c(-c3ccccc3)sc(-c3ccccc3)c2c1-c1ccccc1"
  TGI: "> 100 µM"
- compound: "CC(=O)/C=C/c1ccc(C2CC(C)=Nc3c(ccc4c3C(=O)c3ccccc3C4=O)N2)cc1 (stereo not drawn)"
  TGI: "> 100 µM"
- compound: "CC1(C)OCC(C2OC(N3O[C@H](CI)C[C@@H]3c3ccccc3)C3OC(C)(C)OC23)O1 (stereo partly drawn)"
  TGI: "> 100 µM"
- compound: "CCN(CC)Cc1cc(Nc2c3ccccc3nc3c2[nH]c2ccccc23)ccc1O"
  TGI: "2.57 µM"
- compound: "S=C(Nc1ccc(Cl)cc1)Nc1ccc(-c2nc3ccccc3[nH]2)cc1"
  TGI: "11.7 µM"
- compound: "O=C1CCC2(C=C(Br)C(=O)C(Br)=C2)O1"
  TGI: "7.53 µM"
- compound: "CC1=NN(C(=O)Cc2ccccc2)C(=O)/C1=C\\C=C\\c1ccccc1"
  TGI: "> 100 µM"
- compound: "N=C1C(=N)c2ccccc2-c2ccccc21"
  TGI: "1.02 µM"
